# targetOrTestSystem: human TLR8 (Homo sapiens, UniProt Q9NR97)
# Construct: host or cells: HEK-Blue cells
# Sequence (Q9NR97 27-1041): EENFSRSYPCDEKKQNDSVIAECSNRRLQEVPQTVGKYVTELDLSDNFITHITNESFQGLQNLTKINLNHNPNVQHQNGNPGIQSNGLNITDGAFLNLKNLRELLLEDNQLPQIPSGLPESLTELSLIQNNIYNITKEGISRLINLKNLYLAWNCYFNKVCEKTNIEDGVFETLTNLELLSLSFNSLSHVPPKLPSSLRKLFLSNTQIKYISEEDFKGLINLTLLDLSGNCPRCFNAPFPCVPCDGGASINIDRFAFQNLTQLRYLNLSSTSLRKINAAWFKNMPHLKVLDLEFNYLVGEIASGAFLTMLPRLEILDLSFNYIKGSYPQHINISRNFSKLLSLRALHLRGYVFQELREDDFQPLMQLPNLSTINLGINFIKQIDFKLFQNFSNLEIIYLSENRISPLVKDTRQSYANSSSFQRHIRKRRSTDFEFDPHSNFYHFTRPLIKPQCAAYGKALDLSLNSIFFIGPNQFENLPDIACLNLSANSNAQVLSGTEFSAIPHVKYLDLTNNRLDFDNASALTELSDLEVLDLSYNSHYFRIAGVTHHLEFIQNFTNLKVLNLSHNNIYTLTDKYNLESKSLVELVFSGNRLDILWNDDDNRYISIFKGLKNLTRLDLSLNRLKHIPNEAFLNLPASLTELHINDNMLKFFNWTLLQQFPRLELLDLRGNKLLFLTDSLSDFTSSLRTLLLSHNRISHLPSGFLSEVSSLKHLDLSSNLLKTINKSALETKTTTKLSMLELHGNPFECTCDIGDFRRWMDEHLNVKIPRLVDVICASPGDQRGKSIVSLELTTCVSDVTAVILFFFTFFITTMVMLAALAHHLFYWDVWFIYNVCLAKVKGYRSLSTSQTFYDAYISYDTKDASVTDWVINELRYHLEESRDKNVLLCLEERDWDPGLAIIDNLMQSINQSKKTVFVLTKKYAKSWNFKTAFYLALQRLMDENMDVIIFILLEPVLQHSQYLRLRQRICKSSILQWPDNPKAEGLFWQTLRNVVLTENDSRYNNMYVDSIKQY
# experimentNotes: TLR8 inhibition reporter assay (HEK-Blue, SEAP)
# Type: cell-based
# conditionSummary: HEK-Blue cells overexpressing human TLR8, ligand R848 14.25 μM, 22 hour incubation
pIC50: −log10 of the molar value.
readout: pIC50

So for `CC(C)N1CC2(CCN(c3ccc(-c4ccc5nc(-c6ccc(S(C)(=O)=O)cc6)n(C)c5n4)cc3)CC2)C1` , the logged pIC50 turned out to be 4.74

Note to self: pIC50 recorded for Cc1cc(C2CCN(C3CC4CCC(C3)N4C(C)C)CC2)nc2c1nc(-c1ccc(S(C)(=O)=O)cc1)n2C (single isomer, unassigned) [Example 27] was 4.62

# pIC50 of `Cc1cc(-c2ccc(C3CCN(C)CC3)cc2)nc2c1nc(-c1ccc(S(C)(=O)=O)cc1)n2C1CC1` = < 4.30

Looking up Cc1cc(C2CCN(C3CC4CCC(C3)N4CC3CC3)CC2)nc2c1nc(-c1ccc(S(C)(=O)=O)cc1)n2C (single isomer, unassigned) [Example 30] , I see its pIC50 listed as < 4.30

For record Cc1cc(C2CCN(C3CC4CCC(C3)N4C3CCOCC3)CC2)nc2c1nc(-c1ccc(S(C)(=O)=O)cc1)n2C (single isomer, unassigned) [Example 35] the listed pIC50 is < 4.30

Form field pIC50, entry `COc1ccc(-c2nc3c(C)cc(C4CCN([C@H]5C[C@@H]6CN(CC7CC7)C[C@@H]6C5)CC4)nc3n2C)cc1OC` : < 4.30

* * *

# targetOrTestSystem: human TLR8 (Homo sapiens)
# Construct: host or cells: HEK-Blue cells
# experimentNotes: TLR8 inhibition reporter assay (HEK-Blue, SEAP)
# Format: cell-based
# conditionSummary: HEK-Blue cells overexpressing human TLR8, ligand R848 14.25 μM, 22 hour incubation
readout: IC50 (µM)

In [3]: df
Out[3]:
                                   molecule  measurementunits  quantitativereadout
0  COc1ccc(-c2nc3c(C)cc(-c4ccc(N5CCC6(CC5)CN(C(C)C)C6)cc4)nc3n2C)cc1OC [Example 58]                µM                   15
1  Cc1cc(C2CCN(C3CC4CCC(C3)N4C3CCC3)CC2)nc2c1nc(-c1ccc(S(C)(=O)=O)cc1)n2C (stereo not shown) [Example 33]                µM                   19

* * *

# targetOrTestSystem: human TLR7 (Homo sapiens, UniProt Q9NYK1)
# Sequence (Q9NYK1 27-1049): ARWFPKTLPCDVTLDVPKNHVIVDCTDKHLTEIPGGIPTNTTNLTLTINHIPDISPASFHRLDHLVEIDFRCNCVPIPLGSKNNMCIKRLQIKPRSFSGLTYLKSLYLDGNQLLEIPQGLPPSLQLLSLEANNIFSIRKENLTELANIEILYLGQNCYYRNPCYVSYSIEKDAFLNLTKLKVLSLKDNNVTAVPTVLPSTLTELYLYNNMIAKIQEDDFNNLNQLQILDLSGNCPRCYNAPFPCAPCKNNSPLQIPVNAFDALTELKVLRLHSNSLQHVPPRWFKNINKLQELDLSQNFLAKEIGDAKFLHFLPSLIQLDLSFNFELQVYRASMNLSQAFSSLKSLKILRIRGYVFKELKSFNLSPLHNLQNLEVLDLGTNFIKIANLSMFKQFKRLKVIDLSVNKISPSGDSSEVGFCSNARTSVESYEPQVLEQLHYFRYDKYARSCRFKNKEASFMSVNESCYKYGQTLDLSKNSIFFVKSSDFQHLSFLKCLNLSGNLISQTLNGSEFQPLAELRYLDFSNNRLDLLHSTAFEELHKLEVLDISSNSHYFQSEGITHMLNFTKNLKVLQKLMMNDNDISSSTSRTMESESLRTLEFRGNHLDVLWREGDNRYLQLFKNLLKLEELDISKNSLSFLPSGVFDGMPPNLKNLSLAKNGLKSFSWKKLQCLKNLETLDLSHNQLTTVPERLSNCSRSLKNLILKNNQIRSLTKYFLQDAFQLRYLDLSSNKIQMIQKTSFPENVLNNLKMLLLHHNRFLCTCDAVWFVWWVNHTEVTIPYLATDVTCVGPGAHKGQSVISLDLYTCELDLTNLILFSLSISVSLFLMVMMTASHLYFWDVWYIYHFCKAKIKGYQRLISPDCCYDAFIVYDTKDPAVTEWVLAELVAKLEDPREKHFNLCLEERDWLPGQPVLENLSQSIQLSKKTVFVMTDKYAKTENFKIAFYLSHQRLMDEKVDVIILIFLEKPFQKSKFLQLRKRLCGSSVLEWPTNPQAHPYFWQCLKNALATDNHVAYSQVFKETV
# experimentNotes: TLR7 inhibition reporter assay (HEK-Blue, SEAP)
# conditionSummary: HEK-Blue cells overexpressing human TLR7, ligand gardiquimod 2.5 μM, 22 hour incubation
readout: IC50 (µM)

Examples with answers:
                                   compound  readout  quantitativereadout
0  COc1cc(-c2nc3c(C)cc(C4CCN([C@H]5C[C@@H]6CN(C7CCC7)C[C@@H]6C5)CC4)nc3n2C)cn2ncnc12 [Example 42]     IC50                   17
1  Cc1cc(C2CCN(C3CCN(C(C)C)CC3)CC2)nc2c1nc(-c1ccc(S(C)(=O)=O)cc1)n2C [Example 20]     IC50                  1.4
2  COc1cc(-c2nc3c(C)cc(C4CCN([C@H]5C[C@@H]6CN(CC7CC7)C[C@@H]6C5)CC4)nc3n2C)cn2ncnc12 [Example 43]     IC50                 0.25
3  COc1cc(-c2nc3c(C)cc(-c4ccc(N5CCN(C(C)C)CC5)cc4)nc3n2C)cn2ncnc12 [Example 45]     IC50                  5.8
4  CC(C)N1CCN(c2ccc(-c3cnc4nc(-c5ccc(S(C)(=O)=O)cc5)n(C5CC5)c4c3)cc2)CC1 [Example 51]     IC50                  2.7
5  COc1ccc(-c2nc3ccc(-c4ccc(N5CCN(C(C)C)CC5)cc4)nc3n2C2CC2)cc1OC [Example 55]     IC50                   40
6  Cc1cc(C2CCN(C3CC4CCC(C3)N4C(C)C)CC2)nc2c1nc(-c1ccc(S(C)(=O)=O)cc1)n2C (single isomer, unassigned) [Example 26]     IC50                   10
7  Cc1cc(-c2ccc(CN3CC4(C3)CN(C3COC3)C4)cc2)nc2c1nc(-c1ccc(S(C)(=O)=O)cc1)n2C1CC1 [Example 6]     IC50                   15
8  Cn1c(-c2ccc(S(C)(=O)=O)cc2)nc2ccc(C3CCN(C4CCN(C5CC5)CC4)CC3)nc21 [Example 19]     IC50                   18

1 = COc1ccc(-c2nc3c(C)cc(-c4ccc(N5CCC6(CC5)CN(CC(C)C)C6)cc4)nc3n2C)cc1OC [Example 60]
2 = Cn1c(-c2ccc(S(C)(=O)=O)cc2)nc2ccc(-c3ccc(N4CCC5(CC4)CN(CC(C)(C)O)C5)cc3)nc21 [Example 63]
QUERY: Field: entry with larger IC50 (options 1 / 2 ). Indicate which entry you chose by stating its label.
RESULT: 2
